Kindly find below IC50 information for Glycogen synthase kinase-3 beta (Homo sapiens, UniProt P49841) taken from the literature.

Problem: Note IC50 for the compound shown: `CN1CCCC(=O)NCCc2cccc(c2)Nc2ncnc(n2)-c2ccnc(c2)CCC1`
Solution: 10 to 100 nM

Problem: Give the reported IC50 for this compound. `CN1CCC(=O)NCCCc2cc(ccn2)-c2ncnc(n2)Nc2cc(Cl)cc(c2)C1`
Solution: 10 to 100 nM

Problem: # return recorded IC50 for input `COc1ccc(-c2ccnc(Nc3ccc(OC)nc3)n2)cc1`
Solution: 90 nM

Problem: Please give the documented IC50 of COc1cc(C2=C(c3cn(CCCNC(=O)C(N)CC(C)C)c4ccccc34)C(=O)NC2=O)cc(OC)c1OC (stereo not drawn)
Solution: 208 nM

Problem: Answer with reported IC50 of `O=C(Nc1cnccn1)Nc1cc(C(F)(F)F)nc2ccccc12`
Solution: 100 to 10000 nM

Problem: Give recorded IC50. `O=[N+]([O-])c1cccc(Nc2nccc(-c3cccc(O)c3)n2)c1`
Solution: 3 nM

Problem: Retrieve IC50 measured for `NC(=O)c1ccc(-c2ccnc(NCc3ccncc3)n2)cc1` and print it.
Solution: ≤ 10000 nM

Problem: Output measured IC50 for this item: `O=[N+]([O-])c1ccc(NCCNc2nccc(NCc3cc(Cl)cc(Cl)c3)n2)nc1`
Solution: ≤ 10000 nM

Problem: Give the measured IC50 for `Cc1nc(NCCNc2ccc([N+](=O)[O-])cn2)nc(-c2ccccc2)c1C(=O)O`
Solution: ≤ 10000 nM

Problem: State, in one line, measured IC50 of `O=C(CN1c2ccccc2Cn2c1nc(-c1ccncn1)cc2=O)c1ccccc1`
Solution: 6 nM

Problem: Supply recorded IC50 for `N#Cc1ccc(NCCNc2nc(-c3ccc(C(F)(F)F)cc3)cc3nc(CN4CCOCC4)nn23)nc1N` here.
Solution: 50 nM

Problem: Please supply the value of reported IC50 for the item `CCOC(=O)c1cnc(NCCNc2ccc([N+](=O)[O-])cn2)nc1-c1ccc(C#N)cc1`
Solution: ≤ 1000 nM

Problem: Using known records, supply IC50 for `CS(=O)(=O)Nc1cccc(-c2ccnc3[nH]cc(C(=O)c4ccccc4F)c23)c1`
Solution: ≤ 10000 nM

Problem: Could you please provide reported IC50 for N#Cc1ccc2[nH]c(O)c(-c3ccc(CN4CC5COCC5C4)cn3)c2c1 (stereo not drawn) ? Thanks!
Solution: < 100 nM

Problem: For the compound `C=Cc1cc2c(nn1)Nc1ccccc1NC2=O` , give its measured IC50 value.
Solution: 45 nM

Problem: Report IC50 for `Cc1nccn1-c1cnc(NCCNc2ccc([N+](=O)[O-])cn2)nc1-c1ccc(Cl)cc1Cl`
Solution: ≤ 1000 nM

Problem: Annotate the compound Nc1c(Cl)cc(C(=O)NC2CCCn3c2nc(-c2ccncc2)cc3=O)c2c1OCCO2 (racemic) with its measured IC50.
Solution: 14 nM

Problem: Return IC50 for the following compound: `O=C(NCc1cc(Cl)cc(Cl)c1)c1ccc(-c2ccnc(NCCNc3ccc([N+](=O)[O-])cn3)n2)cc1`
Solution: ≤ 10000 nM
